# experimental system: MtHISN2 (Medicago truncatula, UniProt A0A072U2X9, R183E)
# Construct: N-truncated at Val49 (chloroplast transit peptide removed), residues 49-283, N-terminal Ser-Asn-Ala linker left, His6-tag cleaved with TEV; E. coli BL21 Gold; both PRA-CH and PRA-PH domains
# Sequence (A0A072U2X9 entry or part of it R183E): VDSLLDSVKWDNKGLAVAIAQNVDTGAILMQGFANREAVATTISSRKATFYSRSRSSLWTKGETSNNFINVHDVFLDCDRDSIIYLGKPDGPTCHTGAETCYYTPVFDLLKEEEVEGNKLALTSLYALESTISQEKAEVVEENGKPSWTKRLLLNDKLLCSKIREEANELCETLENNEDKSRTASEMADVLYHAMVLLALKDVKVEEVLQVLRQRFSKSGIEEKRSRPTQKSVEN
# method description: isothermal titration calorimetry
value type: pKd
Scale for pKd: -log10 of concentration given in mol/L; no unit attached.

**Q:** Look up pKd of Nc1ncnc2c1ncn2[C@@H]1O[C@H](COP(=O)(O)O)[C@@H](O)[C@H]1O and report it.
**A:** 4.51

====

# experimental system: MtHISN2 (Medicago truncatula, UniProt A0A072U2X9, T197V)
# Construct: gene MTR_7g084480; N-truncated at Val49 (chloroplast transit peptide removed), residues 49-283, N-terminal Ser-Asn-Ala linker left, His6-tag cleaved with TEV; E. coli BL21 Gold; both PRA-CH and PRA-PH domains
# method description: isothermal titration calorimetry
# Assay type: binding
value type: pKd
Scale for pKd: -log10 of concentration given in mol/L; no unit attached.

**Q:** Look up pKd of Nc1ncnc2c1ncn2[C@@H]1O[C@H](COP(=O)(O)O)[C@@H](O)[C@H]1O [AMP] and report it.
**A:** 4.54
